# TARGET_DESC: Paired box protein Pax-6 (Homo sapiens)
# PROCEDURE_TEXT: ATG_Pax6_CIS: Attagene CIS-FACTORIAL HepG2 Assay for human Paired Box 6 (PAX6) (AID 2282956)
# PARTICULARS: HepG2 CIS-FACTORIAL PAX6 reporter transcription, RNA readout; actives raise or lower the signal
Calls of active or inactive are those of the source. The calls were made as follows: active = hit-call score of the fitted dose curve at least 0.9, where 1 is the maximum; inactive = score below 0.9.
Outcomes: active, inactive

COMPOUND	LABEL
Nc1ccc(Cc2ccc(N)cc2)cc1	inactive
CS(=O)(=O)NC(=O)c1cc(Oc2ccc(C(F)(F)F)cc2Cl)ccc1[N+](=O)[O-]	inactive
Clc1ccc(C(c2ccc(Cl)cc2)C(Cl)(Cl)Cl)cc1	inactive
OCCCl	inactive
CCCCCCCCn1sccc1=O	active
Cc1ccc([N+](=O)[O-])cc1	inactive
C=CCc1ccc2c(c1)OCO2	inactive
c1ccc(N=Nc2ccccc2)cc1	inactive
C[N+](C)(C)CC1CO1 (stereo not drawn)	inactive
COC(=O)c1ccccc1N	inactive
OCCOCCO	inactive
CO[C@@H]1[C@H](OC(=O)NC(=O)CCl)CC[C@]2(CO2)[C@H]1[C@@]1(C)O[C@@H]1CC=C(C)C	inactive
c1ccc2c(c1)-c1cccc3cccc-2c13	inactive

====

# PROCEDURE_TEXT: Tanguay_ZF_120hpf_OTIC_legacy: (Legacy) Oregon State University Tanguay Lab 120 Hour Post-fertilization zebrafish Assay for Otic Vesicle Malformation (AID 2283639)
Results filed as inconclusive are left out. Calls of active or inactive are those of the source. Rule for the calls: active = hit-call score of the fitted dose curve at least 0.9, where 1 is the maximum; inconclusive = response in the unintended direction; inactive = score below 0.9.
Classes used: active, inactive

COMPOUND	LABEL
Cc1ccc([N+](=O)[O-])cc1	inactive
O=C(Nc1ccccc1)c1ccccc1I	active
CCNS(=O)(=O)C(F)(F)C(F)(F)C(F)(F)C(F)(F)C(F)(F)C(F)(F)C(F)(F)C(F)(F)F	active
O=[N+]([O-])c1ccc(Oc2ccc(Cl)cc2Cl)cc1	inactive
Clc1ccccc1Cl	inactive
C[N+](C)(C)CC1CO1 (centres undefined)	inactive
O=[N+]([O-])C(Br)(CO)CO	inactive
OCCOCCO	inactive
CNC(=O)Oc1cccc2c1OC(C)(C)C2	inactive
CCCCCCCCn1sccc1=O	inactive
CCCCOC(=O)c1ccccc1C(=O)OCc1ccccc1	inactive
CCOC(=O)[C@]1(c2ccccc2)Oc2ccccc2[C@@H]1N	inactive
CC(C)(C)OOC(=O)c1ccccc1	inactive
CCN(CC)CCO	inactive

====

# PROCEDURE_TEXT: CCTE_Shafer_MEA_acute_per_network_burst_electrodes_number_mean: CCTE's Neural Acute Assay for Mean Number of Electrodes in a Network Burst, Shafer Lab (AID 2284021);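 also: curves fitted for decreases only so hits reduce electrodes per burst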
Activity calls are given as the source filed them. The calls were made as follows: active = hit-call score of the fitted dose curve at least 0.9, where 1 is the maximum; inactive = score below 0.9.
Outcomes: Yes = active, No = inactive

COMPOUND	LABEL
Cc1cc(N=Nc2ccccc2C)ccc1N	No
O=[N+]([O-])c1ccc(Oc2ccc(Cl)cc2Cl)cc1	Yes
[Cl-].[Cl-].[Hg+2]	Yes
CC(C)(O)c1cnn2c(-c3ccc(F)c(-c4c(F)cccc4C#N)c3)cnc2n1	Yes
CCCCCCCCn1sccc1=O	Yes
O=P(OCCCl)(OCCCl)OCCCl	No
CC(C)(C)C(O)(CCc1ccc(Cl)cc1)Cn1cncn1 (stereo not drawn)	No
c1ccc(N=Nc2ccccc2)cc1	No
O=C(N[C@H](c1ccccc1)[C@@H]1CN2CCC1CC2)c1c(Cl)ccc(C(F)(F)F)c1Cl	No
ClCCOCCCl	No
COC(=O)Nc1nc2ccccc2[nH]1	No
CCN(CC)N=O	No
Clc1ccc(C(c2ccc(Cl)cc2)C(Cl)Cl)cc1	Yes

====

# PROCEDURE_TEXT: APR_HepG2_MitoticArrest_24hr: Apredica 24-hour HepG2 Assay for Mitotic Arrest (AID 2282910)
# PARTICULARS: high-content imaging, actives raise or lower the signal
# Description: APR_HepG2_24hr is a cell-based, multiplexed-readout assay that uses HepG2, a human liver cell line, with measurements taken at 24 hours after chemical dosing in a 384-well plate.APR_HepG2_MitoticArrest_24hr is one of 10 assay component(s) measured or calculated from the APR_HepG2_24hr assay. […] This assay endpoint, APR_HepG2_MitoticArrest_24hr, was analyzed with bidirectional fitting relative to DMSO as the negative control and baseline of activity. […]
The source made the active and inactive calls. Rule for the calls: active = hit-call score of the fitted dose curve at least 0.9, where 1 is the maximum; inactive = score below 0.9.
Outcome codes: active, inactive

MOLECULE	LABEL
CO[C@@H]1[C@H](OC(=O)NC(=O)CCl)CC[C@]2(CO2)[C@H]1[C@@]1(C)O[C@@H]1CC=C(C)C	inactive
CS(=O)(=O)NC(=O)c1cc(Oc2ccc(C(F)(F)F)cc2Cl)ccc1[N+](=O)[O-]	inactive
c1ccc2c(c1)oc1ccccc12	inactive
CCCCCCCCOC(=O)c1ccc(C(=O)OCCCCCCCC)c(C(=O)OCCCCCCCC)c1	inactive
Cn1cc(-c2ccccc2)c(=O)c(-c2cccc(C(F)(F)F)c2)c1	inactive
ClC1=C(Cl)C2(Cl)C3C(Cl)C=CC3C1(Cl)C2(Cl)Cl (stereo unspecified)	active
O=[N+]([O-])c1ccc(Oc2ccc(Cl)cc2Cl)cc1	inactive
c1ccc(N=Nc2ccccc2)cc1	inactive
COC(=O)c1ccccc1N	inactive
Nc1ccc([N+](=O)[O-])cc1	inactive
OCCOCCO	inactive
O=P(OCCCl)(OCCCl)OCCCl	inactive
[O-][Cl+]O	active
Clc1ccccc1Cl	inactive
CC(C)N(Cc1ccccc1)C(=O)C(C)(C)C	inactive
CC(C)(C)C(O)(CCc1ccc(Cl)cc1)Cn1cncn1 (stereo unspecified)	active
c1ccc2c(c1)-c1cccc3cccc-2c13	active
Nc1ccc(Oc2ccc(N)cc2)cc1	inactive
CCOc1cccc(C2(N3CCN(c4ccccc4)CC3)CCC(C)CC2)c1 (stereo unspecified)	inactive
Nc1ccc(Cc2ccc(N)cc2)cc1	inactive
CN(C)C(=O)Nc1ccc(Cl)cc1	inactive
Nc1cc(Cl)cc(C(=O)O)c1Cl	inactive
N#CC(Br)Br	active
Brc1ccc(Oc2ccccc2)cc1	inactive
CCOC(=O)[C@]1(c2ccccc2)Oc2ccccc2[C@@H]1N	active
ClCCOCCCl	inactive

====

# System: Sodium/Iodide Symporter (NIS), SLC5A5 (gene 6528)
# PROCEDURE_TEXT: CPHEA_Stoker_NIS_Inhibition_RAIU: CPHEA's Radioactive Iodide Uptake (RAIU) Assay for Sodium/Iodide Symporter (NIS) Inhibition, Stoker and Laws Labs (AID 2283841)
# Description: CPHEA_Stoker_NIS is a cell-based, single-readout assay that uses hNIS-HEK293T-EPA, a novel human kidney cell line expressing human NIS, with measurements taken at 2 hours after chemical dosing in a 96-well plate. […] A parallel cytoxicity assay (Cell Titer Glo, Promega) was also run in the same cell line.CPHEA_Stoker_NIS_Inhibition_RAIU is one of 2 assay components measured from the CPHEA_Stoker_NIS assay. […]
Results filed as inconclusive are left out. Activity calls are given as the source filed them. The calls were made as follows: active = hit-call score of the fitted dose curve at least 0.9, where 1 is the maximum; inconclusive = response in the unintended direction; inactive = score below 0.9.
Possible outcomes: yes = active, no = inactive

COMPOUND	LABEL
Nc1ccc(Cl)cc1N	yes
CCC(C)c1ccc(O)cc1 (stereo not drawn)	no
ClC1=C(Cl)C2(Cl)C3C(Cl)C=CC3C1(Cl)C2(Cl)Cl (stereo not drawn)	no
[Cl-].[Cl-].[Hg+2]	yes
CCCCCCCCn1sccc1=O	no
CCNS(=O)(=O)C(F)(F)C(F)(F)C(F)(F)C(F)(F)C(F)(F)C(F)(F)C(F)(F)C(F)(F)F	no
CCCCOC(=O)c1ccccc1C(=O)OCc1ccccc1	no
Cc1cc(N=Nc2ccccc2C)ccc1N	no
Cc1cccc(N)c1N	no
ClC1=C(Cl)[C@]2(Cl)[C@H]3[C@H]([C@@H]4C=C[C@H]3C4)[C@@]1(Cl)C2(Cl)Cl	no
Oc1ccc2ccc3cccc4ccc1c2c34	no
CCOC(=O)[C@]1(c2ccccc2)Oc2ccccc2[C@@H]1N	no
CN(C)c1ccc(C(=O)c2ccc(N(C)C)cc2)cc1	no

====

# PROCEDURE_TEXT: APR_HepG2_MitoMass_24hr: Apredica 24-hour HepG2 Assay for Mitochondrial Mass (AID 2282912)
# PARTICULARS: high-content imaging, actives raise or lower the signal
Calls of active or inactive are those of the source. Rule for the calls: active = hit-call score of the fitted dose curve at least 0.9, where 1 is the maximum; inactive = score below 0.9.
Possible outcomes: 1 (active), 0 (inactive)

MOLECULE	LABEL
CC(C)(OOC(C)(C)c1ccccc1)c1ccccc1	1
CC(O)CCO (configuration not stated)	0
COc1cc(C=O)cc2c1[C@H](COC(N)=O)[C@]1(OC(C)=O)ON2C[C@H]2[C@@H]1N2C(C)=O	0
O=C(Nc1ccccc1)c1ccccc1I	0
Nc1ccc(N=Nc2ccccc2)cc1	0
CCCCC(CC)COC(=O)c1ccc(C(=O)OCC(CC)CCCC)c(C(=O)OCC(CC)CCCC)c1 (configuration not stated)	0
CCCCOC(=O)c1ccccc1C(=O)OCc1ccccc1	0

====

# TARGET_DESC: Glucocorticoid receptor (Homo sapiens)
# PROCEDURE_TEXT: ATG_GR_TRANS: Attagene TRANS-FACTORIAL HepG2 Assay for human Glucocorticoid Receptor (GR) (AID 2282978);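 also: activators score as hits since higher reporter transcript over DMSO is fitted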
# PARTICULARS: HepG2 Attagene TRANS GR reporter, mRNA transcription
# Protocol: ATG_TRANS is a cell-based, multiplexed-readout assay that uses HepG2, a human liver cell line, with measurements taken at 24 hours after chemical dosing in a 24-well plate.ATG_GR_TRANS is one of 30 assay component(s) measured or calculated from the ATG_TRANS assay. […] This assay endpoint, ATG_GR_TRANS, was analyzed in the positive analysis fitting direction relative to DMSO as the negative control and baseline of activity. […]
Results filed as inconclusive are left out. Calls of active or inactive are those of the source. How the source made its calls: active means hit-call score of the fitted dose curve at least 0.9, where 1 is the maximum; inconclusive means response in the unintended direction; inactive means score below 0.9.
Labels: Yes for active, No for inactive

COMPOUND	LABEL
Clc1ccccc1Cl	No
CN(C)c1ccccc1	No
CC(C)COC(=O)c1ccccc1C(=O)OCC(C)C	No
CCC(C)c1ccc(O)cc1 (stereo unspecified)	No
C=CCc1ccc2c(c1)OCO2	No
[As]#[In]	No
O=C(Oc1ccc(Br)cc1)N1CCN2CCC1CC2	No
CCCCCOC(=O)c1ccccc1C(=O)OCCCCC	No
Clc1ccc(C(c2ccc(Cl)cc2)C(Cl)Cl)cc1	No
Nc1ccc(Oc2ccc(N)cc2)cc1	No
CCOC(=O)[C@]1(c2ccccc2)Oc2ccccc2[C@@H]1N	No
CCCCCCCCCCCCCN1CC(C)OC(C)C1 (stereo unspecified)	No
c1ccc(N=Nc2ccccc2)cc1	No
CC(C)(O)c1cnn2c(-c3ccc(F)c(-c4c(F)cccc4C#N)c3)cnc2n1	No
COP(=S)(OC)SCN1C(=O)c2ccccc2C1=O	No
Oc1ccc2ccc3cccc4ccc1c2c34	No
Clc1ccc(C(c2ccc(Cl)cc2)C(Cl)(Cl)Cl)cc1	No
Nc1ccc([N+](=O)[O-])cc1	No
O=P(OCCCl)(OCCCl)OCCCl	No
CCC[CH2][Sn]([Cl])([CH2]CCC)[CH2]CCC	Yes
N#CC(Br)Br	No
ClC1=C(Cl)C2(Cl)C3C(Cl)C=CC3C1(Cl)C2(Cl)Cl (stereo unspecified)	No
Cc1cccc(N)c1N	No
c1ccc(NNc2ccccc2)cc1	No
CC(C)(C)C(O)(CCc1ccc(Cl)cc1)Cn1cncn1 (stereo unspecified)	No
Brc1ccc(Oc2ccccc2)cc1	No
Nc1ccc(Cc2ccc(N)cc2)cc1	No
CCCCCCCCOC(=O)c1ccc(C(=O)OCCCCCCCC)c(C(=O)OCCCCCCCC)c1	No
Nc1ccc(N=Nc2ccccc2)cc1	No
CO[C@@H]1[C@H](OC(=O)NC(=O)CCl)CC[C@]2(CO2)[C@H]1[C@@]1(C)O[C@@H]1CC=C(C)C	No
Nc1ccc(Cl)cc1N	No
